Source listed as PubChem BioAssay (NCI).

experiment: NCI Yeast Anticancer Drug Screen. Data for the sgs1 strain (AID 173);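 also: 0% = growth of vehicle-only control cultures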
experimentalSetup: S. cerevisiae sgs1 mutant, at 100.0 µM, hits give high values
The panel holds about 79,000 compounds, 15% with a hit somewhere; the sample as a whole holds those more often.
measurementName: growth inhibition (%)
Lab book: enter the figure in %, no units written.

Recorded growth inhibition (compound [N-]=[N+]=NC1(c2ccccc2)C(=O)Nc2ccccc2C1=O (stereo not drawn) ): 39

Recorded growth inhibition (compound "O=[N+]([O-])[O][Sn]([O][Sn]([O][N+](=O)[O-])([c]1ccccc1)[c]1ccccc1)([c]1ccccc1)[c]1ccccc1" ): 98

Recorded growth inhibition (compound "CCCCCCCCCCCCCCCCCCNC(=S)/N=C/c1c(O)c2ccccc2[nH]c1=O" ): 23

Recorded growth inhibition (compound "O=C1c2ccccc2C(=O)c2sc(Nc3ccccc3Cl)nc21" ): 97

Recorded growth inhibition (compound "CC(=O)O/N=C1C=C/C(=C(/C#N)c2ccccc2)C=C/1C" ): 95

Recorded growth inhibition (compound C/C1=C/C2OC(=O)C3(C)C2C(CC2(C)OC1=CC2=O)OC3(O)C(C)C (stereo not drawn) ): 92

Recorded growth inhibition (compound O=NC1c2cccc3cccc(c23)C1N=O (stereo not drawn) ): 95

Recorded growth inhibition (compound "OB(O)c1ccccc1C#Cc1ccccc1" ): 31

Recorded growth inhibition (compound "CCCCCCCN(CCCCCCC)CC(=O)c1ccc2cc(Cl)c3ccccc3c2c1" ): 93

Recorded growth inhibition (compound Cc1cccc(C)c1NC(=O)C(C#N)C1=C(Cl)C(=O)c2ccccc2C1=O (stereo not drawn) ): 97

Recorded growth inhibition (compound "NC(=S)N1N=C2c3ccccc3CC[C@@H]2[C@@H]1c1ccccc1" ): 89

Recorded growth inhibition (compound "CC(C)N(CCCNc1c2ccccc2nc2cccc([N+](=O)[O-])c12)C(C)C" ): 98

Recorded growth inhibition (compound CCCCCCCCCCCCCCCCCCN(C)C(COC)COP(=O)([O-])OCC[N+](C)(C)C (stereo not drawn) ): 98
